System: human red blood cells
Protocol Summary: red blood cell lysis assay
Assay type: cell-based
Measurement Parameters: 1 h, 37 °C
Observation Type: HC50, toxicity to red blood cells

{"columns": ["Compound", "Tested System", "Reported Value"],
 "data": [
  ["O=C(/N=C(/NCc1ccccc1)Nc1ccc(I)cc1)c1ccccc1", "human red blood cells", ">1000 µM"],
  ["O=C(/N=C(/NCc1ccccc1)Nc1ccc(Br)cc1)c1ccccc1", "human red blood cells", ">1000 µM"],
  ["C[C@@H]1[C@H](O)[C@@H](C)/C=C/C=C/C=C/C=C/C=C/C=C/C=C/[C@H](O[C@@H]2O[C@H](C)[C@@H](O)[C@H](N)[C@@H]2O)C[C@@H]2O[C@](O)(C[C@@H](O)C[C@@H](O)[C@H](O)CC[C@@H](O)C[C@@H](O)CC(=O)O[C@H]1C)C[C@H](O)[C@H]2C(=O)O [Amphotericin B, reference compound]", "human red blood cells", "7.10 ± 2.09 µM"],
  ["CC(C)(C)c1ccc(N/C(=N\\C(=O)c2ccccc2)NCc2ccccc2)cc1", "human red blood cells", ">1000 µM"]
]}
